Numbers sourced from PubChem BioAssay (NCI).

# System: HOP-62 NSCLC
# EXPERIMENT NOTES: NCI-60 one-dose screen, 48 h
# TEST PARAMETERS: 10 µM unless noted
This is part of a sample that, as a whole, favours compounds with a hit. Of some 83,000 tested, about 20% had one in any assay. Activity calls are given as the source filed them. How the source made its calls: active means growth percent below 10; inactive means the rest.
One label from this list, please: active, inactive

O=C1c2ccccc2C(=O)c2c1oc1c2c(=O)[nH]c2ccc(Cl)cc21    active
Nc1c(C(=O)Nc2cccc3ccccc23)sc2nc3c(cc12)CCCCC3    inactive
COc1ccc(Cc2nc(C#N)c(N3CCN(c4ccc(F)cc4)CC3)o2)cc1    inactive
CCOCc1nc2ccccc2c(=O)[nH]1    inactive
CCCCC1=c2c([nH]c3ccc(OC)cc23)=NC2C=CC=NC12 (centres undefined)    inactive

Q) Hello, I am checking results. What call was entered for CSc1nc(-c2cccs2)c2c(N)[nH]nc2n1 ?
A) inactive

Q) Hello, I am checking results. What call was entered for CCN1CCN(Cc2ccc(NC(=O)c3cccc(C#Cc4cccc5[nH]nc(N)c45)c3)cc2C(F)(F)F)CC1 ?
A) active

Q) Hello, I am checking results. What call was entered for CCOC(=O)C1CCN(S(=O)(=O)/N=C2/NC(=O)NC2=C(Cl)Cl)CC1 ?
A) inactive

Q) Hello, I am checking results. What call was entered for COc1ccc(-c2cc(C(=O)N3N=C(c4ccc(N)cc4)CC3c3ccc(OC)cc3)c3cc(OC)ccc3n2)cc1 (centres undefined) ?
A) inactive

====

# System: RXF 393 renal
# EXPERIMENT NOTES: NCI-60 one-dose screen, 48 h
# TEST PARAMETERS: 10 µM unless noted
# Method: Cells are grown in 96 well plates and exposed to the test compound for 48 hours. Compounds are tested at a single concentration, which is 10^-5 M for most compounds. The reported endpoint is percent growth (GI% or GIPRCNT), where numbers from 0 - 100% represent growth inhibition, and numbers from -100% - 0 represent cell death. For example, a value of 40 represents 60% growth inhibition. A value of 0 means no net growth occurred over the course of the experiment. […]
About 83,000 compounds went through this panel and 20% of them were active in at least one assay; those are over-represented in the sample as a whole. Active and inactive are the calls of the source. How the source made its calls: active means growth percent below 10; inactive means the rest.
One label from this list, please: 1 for active, 0 for inactive

CNC(=O)c1cc(Oc2ccc3c(c2)sc2nc(-c4ccc(NC(C)=O)cc4)cn23)ccn1    1
C=C1C(=O)O[C@H]2[C@H]1CC/C(COC(=O)c1c[nH]c3ccccc13)=C\CC[C@@]1(C)O[C@@H]21    1
O=c1c2ccccc2oc2ccc(OCCCCCN3CCCCCC3)cc12    0
CC1(C)CC[C@]2(c3nnc(-c4ccncc4)o3)CC[C@]3(C)C(=CC[C@@H]4[C@@]5(C)CCC(=O)C(C)(C)[C@@H]5CC[C@]43C)[C@@H]2C1    0
COc1cc(-c2csc(NC(=O)Nc3cc(Cl)cc(Cl)c3)n2)cc(OC)c1OC    0

Q) Hello, I am checking results. What call was entered for COc1ccccc1N1CCN(CCCOc2ccc(C(=O)/C=C3/C(=O)Nc4ccccc43)cc2)CC1 ?
A) 0

Q) Hello, I am checking results. What call was entered for CCC1=C[C@H]2CN(CCc3c([nH]c4ccccc34)[C@@](C(=O)OC)(c3cc4c(cc3OC)N(C)[C@H]3[C@@](O)(C(=O)OC)[C@H](OC(C)=O)[C@]5(CC)[C@@H]6C[C@@H]6CN6CC[C@]43[C@@H]65)C2)C1 ?
A) 0

====

Attribute: growth
# System: UACC-62 melanoma
# EXPERIMENT NOTES: NCI-60 one-dose screen, 48 h (100 = growth as untreated, 0 = no growth, -100 = all killed)
# TEST PARAMETERS: 10 µM unless noted
About 83,000 compounds went through this panel and 20% of them were active in at least one assay; those are over-represented in the sample as a whole.
// units = %; emit number, no label

Reference set (4 entries):
[2H]c1nc(Nc2ncc3cc(C(=O)N(C)C)n(C4CCCC4)c3n2)c([2H])c([2H])c1N1C([2H])([2H])C([2H])([2H])NC([2H])([2H])C1([2H])[2H]    64.6
C=C(C)[C@@H]1CC[C@]2(C(=O)O)CC[C@]3(C)[C@H](CC[C@@H]4[C@@]5(C)C[C@@H](CC#Cc6ccccc6C)C(=O)C(C)(C)[C@@H]5CC[C@]43C)[C@@H]12    41.4
O=C(Nc1ccc(S(=O)(=O)NC2CCCCCC2)cc1)C(c1ccccc1)S(=O)(=O)c1ccc(F)cc1 (centres undefined)    -9.75
CCSc1ccc(C2C(Br)C(=O)N2c2cc(OC)c(OC)c(OC)c2)cc1 (centres undefined)    29.6

Q) What growth value was documented for this compound, CCOC(=O)c1c(C(F)(F)F)n([O-])c2ccc(Cl)cc2[n+]1=O ?
A) -18.1

Q) What growth value was documented for this compound, N#CC1C(c2ccc(Cl)cc2)=Nc2c(c(-c3ccccc3)nn2-c2ccccc2)C12C(=O)Nc1ccc(Cl)cc12 (centres undefined) ?
A) 48.2

====

Attribute: growth
# Test system: MDA-MB-231 breast
# EXPERIMENT NOTES: NCI-60 one-dose screen, 48 h (100 = growth as untreated, 0 = no growth, -100 = all killed)
# TEST PARAMETERS: 10 µM unless noted
# Experimental: Cells are grown in 96 well plates and exposed to the test compound for 48 hours. Compounds are tested at a single concentration, which is 10^-5 M for most compounds. The reported endpoint is percent growth (GI% or GIPRCNT), where numbers from 0 - 100% represent growth inhibition, and numbers from -100% - 0 represent cell death. For example, a value of 40 represents 60% growth inhibition. A value of 0 means no net growth occurred over the course of the experiment. […]
The panel holds about 83,000 compounds, 20% with a hit somewhere; the sample as a whole holds those more often. Activity calls are given as the source filed them. The calls were made as follows: active = growth percent below 10; inactive = the rest.

CN1CCN(C(=O)[C@@]2(C)CC[C@]3(C)CC[C@]4(C)C(=CC[C@@H]5[C@@]6(C)CC[C@H](OC(=O)c7cccnc7)C(C)(C)[C@@H]6CC[C@]54C)[C@@H]3C2)CC1    48.4% (inactive)
CC1(c2ccccc2Cl)NC(=O)NC1=O (stereo not given)    105% (inactive)
COC(=O)c1cncc(C(=O)Nc2ccc(-n3cnc4ccccc43)cc2)c1    94% (inactive)
CCOC(=O)c1c(C)nc2c(c1N)/C(=C/c1cccs1)C(=O)N2Cc1ccccc1    55.4% (inactive)

Q) What growth value was documented for this compound, C/C(=N/Nc1nc2ccccc2n1C)c1ccccn1 ?
A) 28.8% (inactive)

====

# Tested on: HCC-2998 colon
# EXPERIMENT NOTES: NCI-60 one-dose screen, 48 h (100 = growth as untreated, 0 = no growth, -100 = all killed)
# TEST PARAMETERS: 10 µM unless noted
# Method: Growth inhibition of the HCC-2998 human tumor cell line is measured as a screen for anti-cancer activity. Cells are grown in 96 well plates and exposed to the test compound for 48 hours. Compounds are tested at a single concentration, which is 10^-5 M for most compounds. The reported endpoint is percent growth (GI% or GIPRCNT), where numbers from 0 - 100% represent growth inhibition, and numbers from -100% - 0 represent cell death. For example, a value of 40 represents 60% growth inhibition. […]
About 83,000 compounds went through this panel and 20% of them were active in at least one assay; those are over-represented in the sample as a whole.
Simple rule here: growth less than 90% is Satisfied, otherwise Not satisfied.

O=C1c2ccccc2C(=O)c2c1oc1c2c(=O)[nH]c2ccccc21    Not satisfied
N#Cc1c(-c2ccc(F)cc2)nc(N=Nc2c(O)[nH]c3ccc(Cl)cc23)nc1N1CCOCC1    Not satisfied
S=C(Nc1ccccc1)c1ccccn1    Not satisfied

Q) For this compound, is growth lower than 90%? O=C1NN(c2ccccc2)C(c2ccc3c(c2)OCO3)N2CCC[C@@H]12 (some centres undefined)
A) Satisfied

Q) For this compound, is growth lower than 90%? Cc1nc2sc(C(=O)Nc3ccccc3)c(N)c2cc1C(C)O (centres undefined)
A) Satisfied

Q) For this compound, is growth lower than 90%? CN1CCN(CC#CCOC(=O)CNC(=O)[C@]23CCC(C)(C)C[C@H]2C2=CC[C@@H]4[C@@]5(C)CC[C@H](O)C(C)(C)[C@@H]5CC[C@@]4(C)[C@]2(C)CC3)CC1
A) Not satisfied

Q) For this compound, is growth lower than 90%? C#C[C@@]1(O)[C@@H](CO)O[C@@H](n2cc(Cl)c3c(N)ncnc32)[C@@H]1O
A) Satisfied

====

# Test system: OVCAR-8 ovarian
# EXPERIMENT NOTES: NCI-60 one-dose screen, 48 h
# TEST PARAMETERS: 10 µM unless noted
About 83,000 compounds went through this panel and 20% of them were active in at least one assay; those are over-represented in the sample as a whole. Activity calls are given as the source filed them. The calls were made as follows: active = growth percent below 10; inactive = the rest.
One label from this list, please: active, inactive

Study these solved cases before continuing.
C=CCn1c(SCC(=O)Nc2ccc(C(=O)/C=C/c3cc(OC)c(OC)c(OC)c3)cc2)nnc1-c1ccc(Cl)cc1    active
CCOC(=O)/C(=C/c1c(-c2ccccc2)[nH]c2ccccc12)C(=O)c1ccc(Cl)cc1    inactive
COc1cc(-c2cn(-c3ccc(Cl)c(Cl)c3)c(=O)[nH]2)cc(OC)c1OC    inactive
CCOC(=O)c1c(C)nc2c(c1N)/C(=C/c1ccc[nH]1)C(=O)N2Cc1ccc(C(F)(F)F)cc1    inactive
C#C[C@@]1(O)[C@@H](CO)O[C@@H](n2ccc3c(N)ncnc32)[C@@H]1O    active
C#C[C@@]1(O)[C@@H](CO)O[C@@H](n2cc(I)c3c(N)ncnc32)[C@@H]1O    active
C=C1C(=O)O[C@H]2[C@H]1CC/C(C=Nc1c(N)cc(C(F)(F)F)cc1Br)=C\CC[C@@]1(C)O[C@@H]21    active
CSc1nc(-c2ccco2)c2c(N)[nH]nc2n1    inactive

Q) Hello, I am checking results. What call was entered for CN(C)C1=NCCN1 ?
A) inactive

Q) Hello, I am checking results. What call was entered for COc1ccc2oc(=O)cc(-c3c(C#N)c(N)n4nc(N)c(C#N)c4c3C#N)c2c1 ?
A) inactive

Q) Hello, I am checking results. What call was entered for Cc1ccc(CS/C(=C\c2ccc([N+](=O)[O-])cc2)C(=O)c2ccc(F)cc2)cc1 ?
A) inactive

Q) Hello, I am checking results. What call was entered for Sc1cccc2cccnc12 ?
A) inactive

Q) Hello, I am checking results. What call was entered for CCc1ccc(OCc2ccccc2C(=O)Nc2ccc3nc(C)cc(N)c3c2)cc1 ?
A) active

Q) Hello, I am checking results. What call was entered for Cc1ccc(C(=O)/C(=C/c2ccc([N+](=O)[O-])cc2)S(=O)Cc2ccccc2)cc1 (configuration not stated) ?
A) inactive

Q) Hello, I am checking results. What call was entered for COc1ccc(-c2nc(C#N)c(NCC(c3ccc(Cl)cc3)N3CCCCC3)o2)cc1 (configuration not stated) ?
A) inactive

Q) Hello, I am checking results. What call was entered for COCCOCCOCc1n(Cc2ccc3ccccc3c2)c2ccccc2[n+]1Cc1ccc2ccccc2c1 ?
A) active
